Test system: S. cerevisiae expressing PfHSP40, growth rescue, plate reader
ASSAY_TEXT: Yeast growth rescue from Plasmodium falciparum HSP40 toxicity, dose response confirmatory, plate reader (AID 540271); call rule not given here;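 further: yeast growth read after three days of incubation at 30 °C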
Reply using exactly one outcome from 1 (active), 0 (inactive)

The following compounds have reported results that may help.
[[record]]
compound = "COC(=O)/C=C\\C(=O)Nc1cccc([N+](=O)[O-])c1"
tested_on = "S. cerevisiae expressing PfHSP40, growth rescue, plate reader"
assigned_category = 1

[[record]]
compound = "O/N=C(\\c1ccc(Cl)cc1Cl)c1ncc(C(F)(F)F)cc1Cl"
tested_on = "S. cerevisiae expressing PfHSP40, growth rescue, plate reader"
assigned_category = 1

[[record]]
compound = "c1ccc(Nc2cccc(Nc3ccccc3)c2)cc1"
tested_on = "S. cerevisiae expressing PfHSP40, growth rescue, plate reader"
assigned_category = 1

[[record]]
compound = "O/N=C/c1cc(Br)ccc1OCc1ccccc1F"
tested_on = "S. cerevisiae expressing PfHSP40, growth rescue, plate reader"
assigned_category = 1

[[record]]
compound = "Cc1cc(C(=O)N/N=C/c2cc(Br)cc([N+](=O)[O-])c2O)c2ccccc2n1"
tested_on = "S. cerevisiae expressing PfHSP40, growth rescue, plate reader"
assigned_category = 1

[[record]]
compound = "CCCCCCCN1N=C(C)C(C(=O)c2ccccc2)C1=O (stereo not drawn)"
tested_on = "S. cerevisiae expressing PfHSP40, growth rescue, plate reader"
assigned_category = 1

[[record]]
compound = "Cc1cc(Nc2ccccc2)nn1C(=O)c1ccccc1"
tested_on = "S. cerevisiae expressing PfHSP40, growth rescue, plate reader"
assigned_category = 1

[[record]]
compound = "CCCOc1ccc(C(=O)NNC(=S)NC(=O)CC)cc1"
tested_on = "S. cerevisiae expressing PfHSP40, growth rescue, plate reader"
assigned_category = 1


Which outcome did this test record for the compound `Cc1ccc(NC(=O)CN(C)C(=O)c2cccnc2Nc2cccc(C(F)(F)F)c2)cc1` ?
1

Dear colleague, could you share the recorded outcome for `CCCCNc1c(-c2cccc(-c3ccc(OC)cc3)c2)nc2ccc(C)cn12` when you have a moment?
1

###

Tested on: S. cerevisiae expressing PfHSP40, growth rescue, plate reader
ASSAY_TEXT: Yeast growth rescue from Plasmodium falciparum HSP40 toxicity, dose response confirmatory, plate reader (AID 540271);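 further: yeast growth read after three days of incubation at 30 °C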
REPORTED_PROPERTY: AC50

The cases that follow already have their AC50 on record.
[[record]]
molecule = "Cc1ccc(C(C[N+](=O)[O-])c2c(N)n(C)c(=O)n(C)c2=O)cc1 (stereo unspecified)"
reported_result = "6.03 µM"

[[record]]
molecule = "O/N=C/c1cc(Br)ccc1OCc1cccc(F)c1"
reported_result = "6.89 µM"

[[record]]
molecule = "O=C1C(=C(I)I)c2ccccc2-c2ccccc21"
reported_result = "5.61 µM"

[[record]]
molecule = "COc1cccc(/C=N/NC(=O)c2nc(-c3ccccc3)cc(-c3ccccc3)n2)c1O"
reported_result = "3.51 µM"


Lab note: each molecule below needs its AC50 filled in.
1. CC1CCCCC1NC(=O)/C(C#N)=C/c1ccccc1F (stereo unspecified)
2. CC(=O)Nc1cccc(NC(=O)CSc2ccc(-c3ccccn3)nn2)c1

1: 5.7 µM; 2: 3.64 µM

###

Could you please report measured AC50 for the items listed next?
System: S. cerevisiae expressing PfHSP40, growth rescue, plate reader
ASSAY_TEXT: Yeast growth rescue from Plasmodium falciparum HSP40 toxicity, dose response confirmatory, plate reader (AID 540271);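 further: yeast growth read after three days of incubation at 30 °C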

Observe how each entry below is paired with its result.
[[record]]
compound = "CCCCCCN1N=C(C)C(C(=O)c2ccc(Cl)cc2)C1=O (stereo unspecified)"
reported_result = "3.23 µM"

[[record]]
compound = "CCCCNc1c(-c2cccc(Sc3ccc(OC)cc3)c2)nc2ccccn12"
reported_result = "8.12 µM"

[[record]]
compound = "CCCCCOc1ccc(CSc2n[nH]c(C)n2)cc1"
reported_result = "3.81 µM"

[[record]]
compound = "Cc1ccc(NC(=S)c2nc3ccccc3[nH]2)c(C)c1"
reported_result = "6.15 µM"

[[record]]
compound = "CNC1=C(N(C(C)=O)c2ccc(Br)cc2)C(=O)c2ccccc2C1=O"
reported_result = "6.77 µM"


Continue with the next compound.
Answer with the recorded AC50 for the compound listed here: `O=C(O)CSc1nc(-c2ccc(Cl)cc2)nc2c1oc1ccccc12`
6.02 µM
